target: human TLR8 (Homo sapiens (Human)); test: TLR8 inhibition reporter assay (HEK-Blue SEAP); conditions: read-out: TLR8 IC50; HEK-Blue cells overexpressing human TLR8, R848 15.9 μM stimulation, SEAP reporter
Sequence (Q9NR97 27-1041): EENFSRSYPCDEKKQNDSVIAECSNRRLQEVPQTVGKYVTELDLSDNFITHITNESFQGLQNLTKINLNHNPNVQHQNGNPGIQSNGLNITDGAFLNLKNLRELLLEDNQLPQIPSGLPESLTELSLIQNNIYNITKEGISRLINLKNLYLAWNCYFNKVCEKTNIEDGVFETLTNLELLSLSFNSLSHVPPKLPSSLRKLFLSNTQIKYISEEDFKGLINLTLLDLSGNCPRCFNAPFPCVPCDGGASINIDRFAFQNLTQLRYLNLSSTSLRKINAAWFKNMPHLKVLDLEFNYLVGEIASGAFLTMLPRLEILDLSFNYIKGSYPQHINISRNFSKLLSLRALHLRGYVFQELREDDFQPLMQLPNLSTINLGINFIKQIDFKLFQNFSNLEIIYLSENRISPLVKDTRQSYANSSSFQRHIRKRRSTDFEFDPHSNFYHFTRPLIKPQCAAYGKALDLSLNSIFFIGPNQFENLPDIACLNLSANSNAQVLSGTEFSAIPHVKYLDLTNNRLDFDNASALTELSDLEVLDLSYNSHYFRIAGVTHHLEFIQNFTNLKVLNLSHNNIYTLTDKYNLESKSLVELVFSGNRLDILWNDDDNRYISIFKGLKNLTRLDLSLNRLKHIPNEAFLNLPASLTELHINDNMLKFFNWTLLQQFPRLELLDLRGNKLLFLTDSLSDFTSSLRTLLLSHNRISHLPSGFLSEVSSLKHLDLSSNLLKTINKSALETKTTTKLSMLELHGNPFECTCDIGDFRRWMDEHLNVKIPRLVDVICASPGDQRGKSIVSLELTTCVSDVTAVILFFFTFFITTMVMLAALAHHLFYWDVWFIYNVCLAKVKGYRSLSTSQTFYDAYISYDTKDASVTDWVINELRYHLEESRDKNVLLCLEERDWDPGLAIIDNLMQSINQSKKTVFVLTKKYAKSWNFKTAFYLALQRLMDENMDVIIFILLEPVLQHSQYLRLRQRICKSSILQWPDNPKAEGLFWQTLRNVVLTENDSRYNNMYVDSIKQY
Metric: IC50 (nM)
Numeric answer only, unit nM assumed.

What does the record list as IC50 for Cc1c(-c2[nH]c3cnc(C4CCC(N5CCC5)CC4)c(F)c3c2C(C)C)cn2ncnc2c1C (stereo not drawn) [Example 165] ?
0.62

What does the record list as IC50 for COc1cc(-c2[nH]c3cnc(C4CCNCC4)cc3c2C(C)C)cn2ncnc12 [Example 312] ?
114

What does the record list as IC50 for COc1cc(-c2[nH]c3cnc(N4CCC(NC[C@@H](F)C(C)(C)O)CC4)c(C)c3c2C(C)C)cn2ncnc12 [Example 64] ?
1.5

New cases:
What does the record list as IC50 for CNC(=O)CN(C)C1CCC(c2cc3c(C(C)C)c(-c4cc(OC)c5ncnn5c4)[nH]c3cn2)CC1 (stereo not drawn) [Example 328] ?
60

What does the record list as IC50 for Cc1c(-c2[nH]c3cnc(C4CCC(NC5CCOCC5)CC4)c(C)c3c2C(C)C)cn2ncnc2c1C (stereo not drawn) [Example 119] ?
11

What does the record list as IC50 for Cc1c(-c2[nH]c3cnc(N4CC5(CNC5)C4)c(F)c3c2C(C)C)cn2ncnc2c1C [Example 392] ?
13

What does the record list as IC50 for Cc1cc(-c2[nH]c3cnc(C4CCN(CC(N)=O)CC4)c(F)c3c2C(C)C)cc(C)n1 [Example 152] ?
6.4

What does the record list as IC50 for Cc1cc(-c2[nH]c3cnc(C4CCNCC4)c(F)c3c2C(C)C)cc(C)n1 [Example 151] ?
4.4

What does the record list as IC50 for COCCNC1CCC(c2cc3c(C(C)C)c(-c4cn5ncnc5c(C)c4C)[nH]c3cn2)CC1 (stereo not drawn) [Example 348] ?
9

What does the record list as IC50 for COc1cc(-c2[nH]c3cnc(N4CCN(CC(=O)N(C)C)CC4)c(F)c3c2C(C)C)cn2ncnc12 [Example 360] ?
1.5

What does the record list as IC50 for Cc1c(-c2[nH]c3cnc(C4CCC(NCC(C)(C)C)CC4)c(C)c3c2C(C)C)cn2ncnc2c1C (stereo not drawn) [Example 247] ?
10

What does the record list as IC50 for COc1cc(-c2[nH]c3cnc(N4CCN(CC5CC5)C[C@H]4C)c(F)c3c2C(C)C)cn2ncnc12 [Example 442] ?
7.1

What does the record list as IC50 for Cc1c(-c2[nH]c3cnc(C4CCC(NCC5(C)COC5)CC4)c(C)c3c2C(C)C)cn2ncnc2c1C (stereo not drawn) [Example 204] ?
3.1

---

target: human TLR8 (Homo sapiens (Human)); assay: TLR8 inhibition reporter assay (HEK-Blue SEAP); settings: read-out: TLR8 IC50; HEK-Blue cells overexpressing human TLR8, R848 15.9 μM stimulation, SEAP reporter
Metric: pIC50
Scale for pIC50: -log10 of concentration given in mol/L; no unit attached.

Examples from the recorded data:
What does the record list as pIC50 for Cc1cc(-c2[nH]c3cnc(C4CCN(C(=O)CN(C)C)CC4)c(F)c3c2C(C)C)cc(C)n1 [Example 185] ?
8.11

What does the record list as pIC50 for COc1cc(-c2[nH]c3cnc(N4CCNC[C@H]4C)c(F)c3c2C(C)C)cn2ncnc12 [compound 354] ?
8.00

From here, focus on the item given below.
What does the record list as pIC50 for COc1cc(-c2[nH]c3cnc(N4CCN(C(=O)CN5CCOCC5)C[C@H]4C)c(F)c3c2C(C)C)cn2ncnc12 [Example 438] ?
7.89

---

target: human TLR8 (Homo sapiens (Human)); test: TLR8 inhibition reporter assay (HEK-Blue SEAP); conditions: read-out: TLR8 IC50; HEK-Blue cells overexpressing human TLR8, R848 15.9 μM stimulation, SEAP reporter
Metric: IC50

What does the record list as IC50 for Cc1cc(-c2[nH]c3cnc(C4CCC(NCC(C)(C)O)CC4)c(F)c3c2C(C)C)cn2ncnc12 (stereo not drawn) [Example 49] ?
0.62 nM

What does the record list as IC50 for Cc1c(-c2[nH]c3cnc(C4CCC(NCC5(C)COC5)CC4)c(C)c3c2C(C)C)cn2ncnc2c1C (stereo not drawn) [Example 203] ?
9.3 nM

What does the record list as IC50 for Cc1c(-c2[nH]c3cnc(N4CCN(C(=O)CN(C)C)CC4)c(F)c3c2C(C)C)cn2ncnc2c1C [Example 422] ?
2 nM

What does the record list as IC50 for Cc1cc(-c2[nH]c3cnc(C4CCC(NC(C)C)CC4)c(F)c3c2C(C)C)cn2ncnc12 (stereo not drawn) [Example 198] ?
2.6 nM

What does the record list as IC50 for COc1cc(-c2[nH]c3cnc(N4CCN(CC(N)=O)CC4)cc3c2C(C)C)cn2ncnc12 [Example 319] ?
3.7 nM

What does the record list as IC50 for COc1cc(-c2[nH]c3cnc(C4CCC(NCC(C)(C)F)CC4)c(C)c3c2C(C)C)cn2ncnc12 (stereo not drawn) [Example 271] ?
4.2 nM

What does the record list as IC50 for Cc1cc(-c2[nH]c3cnc(C4CCC(NC5COC5)CC4)c(F)c3c2C(C)C)cn2ncnc12 (stereo not drawn) [Example 80] ?
0.6 nM

What does the record list as IC50 for COc1cc(-c2[nH]c3cnc(N4CCC(NCC5(C)COC5)CC4)c(C)c3c2C(C)C)cn2ncnc12 [Example 147] ?
0.27 nM

What does the record list as IC50 for CNC(=O)CN1CCC(c2ncc3[nH]c(-c4cc(C)nc(C)c4)c(C(C)C)c3c2F)CC1 [Example 150] ?
5.3 nM

What does the record list as IC50 for COc1cc(-c2[nH]c3cnc(N4CCN(C5CCC5)C[C@H]4C)c(F)c3c2C(C)C)cn2ncnc12 [Example 441] ?
11 nM

What does the record list as IC50 for COc1ccc(-c2[nH]c3cnc(C4CCN(C5CCN(CC(C)C)CC5)CC4)cc3c2C)cc1OC [Example 9] ?
8220 nM

What does the record list as IC50 for Cc1cc(-c2[nH]c3cnc(N4CCC(N5CC6(COC6)C5)CC4)c(F)c3c2C(C)C)cn2ncnc12 [Example 44] ?
0.36 nM

What does the record list as IC50 for COc1cc(-c2[nH]c3cnc(N4CCC(NCC(C)(C)O)CC4)c(F)c3c2C(C)C)cn2ncnc12 [Example 156] ?
0.26 nM

What does the record list as IC50 for CCN(C)C1CCN(c2ncc3[nH]c(-c4cn5ncnc5c(C)c4C)c(C(C)C)c3c2F)CC1 [Example 83] ?
1.4 nM

What does the record list as IC50 for COCCN1CCC(c2ncc3[nH]c(-c4cc(C)c5ncnn5c4)c(C(C)C)c3c2F)CC1 [Example 183] ?
3.4 nM

What does the record list as IC50 for Cc1cc(-c2[nH]c3cnc(C4CCNCC4)cc3c2C(C)C)cn2ncnc12 [Example 4] ?
973 nM

What does the record list as IC50 for COc1cc(-c2[nH]c3cnc(N4CCNCC4)c(C)c3c2C(C)C)cn2ncnc12 [Example 213] ?
3 nM

What does the record list as IC50 for Cc1c(-c2[nH]c3cnc(C4CCC(NCC5(C)COC5)CC4)c(F)c3c2C(C)C)cn2ncnc2c1C (stereo not drawn) [Example 171] ?
0.12 nM

---

# pIC50 annotations
target: UniProt:Q9NR97; experiment: TLR8 inhibition reporter assay (HEK-Blue SEAP); conditions: read-out: TLR8 IC50; HEK-Blue cells overexpressing human TLR8, R848 15.9 μM stimulation, SEAP reporter
Scale for pIC50: -log10 of concentration given in mol/L; no unit attached.

Examples from the recorded data:
What does the record list as pIC50 for COc1cc(-c2[nH]c3cnc(N4CCC(NC5CCOC5)CC4)c(F)c3c2C(C)C)cn2ncnc12 (stereo not drawn) [Example 103] ?
9.32

What does the record list as pIC50 for `Cc1c(-c2[nH]c3cnc(N4CCC(NCC(C)(C)C)CC4)c(F)c3c2C(C)C)cn2ncnc2c1C` ?
9.31

What does the record list as pIC50 for `COc1cc(-c2[nH]c3cnc(N4CCC(N(C)C(C)C)CC4)c(C)c3c2C(C)C)cn2ncnc12` ?
9.37

New cases:
What does the record list as pIC50 for `COCCNC1CCN(c2ncc3[nH]c(-c4cc(OC)c5ncnn5c4)c(C(C)C)c3c2F)CC1` ?
9.39

What does the record list as pIC50 for `Cc1c(-c2[nH]c3cnc(N4CCNCC4)c(F)c3c2C(C)C)cn2ncnc2c1C` ?
9.29

---

# IC50 annotations
molecular target: human TLR8 (Homo sapiens (Human)); assay: TLR8 inhibition reporter assay (HEK-Blue SEAP); settings: read-out: TLR8 IC50; HEK-Blue cells overexpressing human TLR8, R848 15.9 μM stimulation, SEAP reporter;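 note: SEAP driven by IFN-β minimal promoter with five NF-κB and AP-1 sites, compounds tested 0.05 nM to 50 µM, 22 h incubation, inhibition relative to agonist plus DMSO wells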
Numeric answer only, unit nM assumed.

What does the record list as IC50 for `Cc1cc(-c2[nH]c3cnc(C4CCN(C5COC5)CC4)c(F)c3c2C(C)C)cc(C)n1` ?
23

What does the record list as IC50 for `Cc1cc(-c2[nH]c3cnc(C4CCN(C5COC5)CC4)cc3c2C(C)C)cn2ncnc12` ?
21

New cases:
What does the record list as IC50 for `Cc1c(-c2[nH]c3cnc(C4CCN(C(=O)CN(C)C)CC4)cc3c2C(C)C)cn2ncnc2c1C` ?
48

What does the record list as IC50 for `COc1cc(-c2[nH]c3cnc(N4CCC(NC5CCOCC5)CC4)c(C)c3c2C(C)C)cn2ncnc12` ?
0.52

What does the record list as IC50 for `Cc1c(-c2[nH]c3cnc(C4CCN(CC(=O)N(C)C)CC4)cc3c2C(C)C)cn2ncnc2c1C` ?
6.2

What does the record list as IC50 for `COc1cc(-c2[nH]c3cnc(C4CCN(CC5(C)COC5)CC4)c(F)c3c2C(C)C)cn2ncnc12` ?
1.6

What does the record list as IC50 for `Cc1c(-c2[nH]c3cnc(N4CCN(CC(=O)N(C)C)CC4)c(F)c3c2C(C)C)cn2ncnc2c1C` ?
1.1

What does the record list as IC50 for `Cc1c(N2CCC(N(C)C(C)C)CC2)ncc2[nH]c(-c3cc(C)c4ncnn4c3)c(C(C)C)c12` ?
0.65

What does the record list as IC50 for COc1cc(-c2[nH]c3cnc(C4CCC(NCC5(C)COC5)C4)cc3c2C(C)C)cn2ncnc12 (stereo not drawn) [Example 59] ?
4.7

What does the record list as IC50 for `CCN(C)C1CCN(c2ncc3[nH]c(-c4cc(C)c5ncnn5c4)c(C(C)C)c3c2C)CC1` ?
1

What does the record list as IC50 for `CNCC(=O)N1CCC(c2ncc3[nH]c(-c4cc(C)c5ncnn5c4)c(C(C)C)c3c2F)CC1` ?
16

What does the record list as IC50 for `COc1cc(-c2[nH]c3cnc(C4CCN(CC(F)(F)F)CC4)c(F)c3c2C(C)C)cn2ncnc12` ?
150

What does the record list as IC50 for `COc1cc(-c2[nH]c3cnc(N4CCC(N(C)CC(=O)N(C)C)CC4)c(F)c3c2C(C)C)cn2ncnc12` ?
1.3

What does the record list as IC50 for `COc1cc(-c2[nH]c3cnc(N4CCC(NCC(N)=O)CC4)cc3c2C(C)C)cn2ncnc12` ?
13

What does the record list as IC50 for `Cc1cc(-c2[nH]c3cnc(C4CCN(C(=O)CN(C)C)CC4)cc3c2C(C)C)cn2ncnc12` ?
100

What does the record list as IC50 for `COc1cc(-c2[nH]c3cnc(N4CCN(CC(=O)N(C)C)C[C@H]4C)c(F)c3c2C(C)C)cn2ncnc12` ?
21
